- procedure details: Half life in rat at 1 mg/kg, po
- Format: ADME, organism-based
- condition summary: in vivo
measurement label: half-life (h)
The response must be a number in h with no trailing unit.

Qu. Give the measured half-life of Cc1cc(C(=O)O)nn1Cc1cc(Cl)cc2cc(-c3ccccc3)nn12 .
Ans. 4.28

###

- procedure details: Half life in rat at 1 mg/kg, iv
- Type: ADME, organism-based
- condition summary: in vivo
measurement label: half-life (h)
The response must be a number in h with no trailing unit.

Qu. Give the measured half-life of Cc1cc(C(=O)O)nn1Cc1cc(Cl)cc2cc(-c3ccccc3)nn12 .
Ans. 4.99

The measurements presented in this section are drawn from ChEMBL document CHEMBL4017448.
